test system: human beta-coronavirus OC43; test: microbe, parasite or virus in culture; type: cell-based; details: Betacoronavirus 1, OC43, HeLa, 144 h, OC43 in HeLa cells, 6 days at 33° C., class symbols; read-out: EC50
measurement.kind: EC50

Provide each entry's EC50 from the list below.
1. O=C(NC1CC1)C(=O)[C@H](C[C@@H]1CCNC1=O)NC(=O)[C@@H]1CC2(CCN1C(=O)c1cc3c(C(F)(F)F)cccc3[nH]1)CC2
2. CC(C)(C)O[C@@H]1C[C@@H](C(=O)NC(C[C@@H]2CCNC2=O)C(=O)C(=O)NCc2ccccc2)N(C(=O)c2cc3ccccc3[nH]2)C1 (some centres unmarked)
3. COc1cccc2[nH]c(C(=O)N3C[C@H]4[C@@H]([C@H]3C(=O)N[C@@H](C[C@@H]3CCCNC3=O)C(=O)C(=O)NC3CC3)C4(C)C)cc12
4. COc1cccc2[nH]c(C(=O)N3C[C@@H]4CCC[C@@H]4[C@H]3C(=O)N[C@@H](C[C@@H]3CCNC3=O)C(=O)c3nc4ccccc4s3)cc12
5. CSc1cccc2[nH]c(C(=O)N3C[C@@H]4CCC[C@@H]4[C@H]3C(=O)N[C@@H](C[C@@H]3CCNC3=O)C(=O)CO)cc12
6. COc1cccc2[nH]c(C(=O)N3C[C@]4(C[C@H]3C(=O)NC(C=O)C[C@@H]3CCCNC3=O)CC4(F)F)cc12 (some centres unmarked)

Ans:
1: 1000 to 10000 nM; 2: 1000 to 10000 nM; 3: 100 to 1000 nM; 4: 100 to 1000 nM; 5: 100 to 1000 nM; 6: 1000 to 10000 nM

Each compound below has a recorded value; state its EC50.
1. CC(=O)c1c[nH]c(C(=O)N2C[C@@H]3CCC[C@@H]3[C@H]2C(=O)N[C@@H](C[C@@H]2CCNC2=O)C(=O)CO)c1
2. O=C1NCC[C@H]1C[C@H](NC(=O)[C@@H]1[C@H]2CCC[C@H]2CN1C(=O)c1cc2c3c(ccc2[nH]1)CCO3)C(=O)CO

Ans:
["1000 to 10000 nM", "100 to 1000 nM"]
